Parameter Kd: see the listing below.
target_system: T1, Hu HER3: CD33-[Human HER3, residues 20-640]-TAG (human, UniProt P21860 20-640)
T1 construct: also called hu HER3-Tag; HER3-Tag; not shown: C-terminal TAG (e.g., FLAG TAG)
T1 sequence (P21860 20-640): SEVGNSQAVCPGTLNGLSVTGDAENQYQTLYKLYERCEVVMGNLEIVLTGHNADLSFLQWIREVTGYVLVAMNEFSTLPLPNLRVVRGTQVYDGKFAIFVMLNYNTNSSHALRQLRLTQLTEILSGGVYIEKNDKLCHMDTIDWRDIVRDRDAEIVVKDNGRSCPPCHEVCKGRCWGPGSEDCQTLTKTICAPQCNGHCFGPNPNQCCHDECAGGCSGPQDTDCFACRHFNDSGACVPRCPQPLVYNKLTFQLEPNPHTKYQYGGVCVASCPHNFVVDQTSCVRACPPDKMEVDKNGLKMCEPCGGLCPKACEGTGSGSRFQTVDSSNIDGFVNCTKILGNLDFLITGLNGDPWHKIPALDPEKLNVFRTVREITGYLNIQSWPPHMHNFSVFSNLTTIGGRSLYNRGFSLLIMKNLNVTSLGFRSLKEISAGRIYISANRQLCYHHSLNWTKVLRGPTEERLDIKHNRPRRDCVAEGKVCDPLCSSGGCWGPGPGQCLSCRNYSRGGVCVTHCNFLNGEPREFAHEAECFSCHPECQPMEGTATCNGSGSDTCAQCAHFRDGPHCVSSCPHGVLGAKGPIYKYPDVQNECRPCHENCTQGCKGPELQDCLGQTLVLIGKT
protocol_description: SET, IgG vs soluble HER3-Tag
I only need the number, in nM, no unit after it.

{"binder": "MOR14535 (antibody, human IgG1, kappa, V domains shown, tested as IgG) VH: EVQLVQSGAEVKKPGESLKISCKGSGYSFTTTWVAWVRQMPGKGLEWMGIIYPGLSDTIYSPSFQGQVTISADKSISTAYLQWSSLKASDTAMYYCARVHIIQPPSAWSYNAMDVWGQGTLVTVSS VL: DIQMTQSPSSLSASVGDRVTITCRASQSISTYLNWYQQKPGKAPKLLIYGASNLQSGVPSRFSGSGSGTDFTLTISSLQPEDFATYYCQQSITELFTFGQGTKVEIKR", "Kd / nM": 0.235}

Now turn to the next binder.
Query: Provide measured Kd value, entry: MOR12925 (antibody, human IgG1, kappa, V domains shown, tested as IgG) VH: QVQLVQSGAEVKKPGESLKISCKGSGYSFSNYWIAWVRQMPGKGLEWMGIIYPGNSDTIYSPSFQGQVTISADKSISTAYLQWSSLKASDTAMYYCARVHIIQPPSAWSYNAMDVWGQGTLVTVSS VL: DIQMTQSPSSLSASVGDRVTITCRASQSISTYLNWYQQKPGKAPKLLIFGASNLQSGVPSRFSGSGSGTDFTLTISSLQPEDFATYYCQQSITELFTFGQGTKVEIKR
Result: 0.028
